Origin of the recorded values: paper PMC9736856

assay: DPPH test; conditions: positive control
Measured quantity: pIC50
// returns pIC50 (minus log10 of molar concentration), number only

Respond only with pIC50 recorded for Cc1c(C)c2c(c(C)c1O)CCC(C)(C(=O)O)O2 (stereo not shown)
4.82
